- Test system: OVCAR-5 ovarian
- Method notes: NCI tumour cell line growth inhibition, 48 h
TGI: recorded values

{"Compound": "O=C(/C=N/O)Nc1cc(Cl)c(Cl)cc1Cl", "Target under test": "OVCAR-5 ovarian", "TGI": "> 100 µM"}
{"Compound": "Cc1ccc(C2NC(=O)c3ccccc3N2)s1 (configuration not stated)", "Target under test": "OVCAR-5 ovarian", "TGI": "> 100 µM"}
{"Compound": "CN(C)C/C=C/C(=O)Nc1cc2c(Nc3ccc(F)c(Cl)c3F)ncnc2cc1OCCOC(F)F", "Target under test": "OVCAR-5 ovarian", "TGI": "13.7 µM"}
{"Compound": "COC1=CC23CCCN2CCc2cc4c(cc2C3C1O)OCO4 (configuration not stated)", "Target under test": "OVCAR-5 ovarian", "TGI": "> 100 µM"}
{"Compound": "CCCCc1ccc(Nc2nc(=S)c3[nH]cnc3[nH]2)cc1", "Target under test": "OVCAR-5 ovarian", "TGI": "43.5 µM"}
{"Compound": "COC(=O)CCC(=O)Nc1cc(Cl)ccc1Cl", "Target under test": "OVCAR-5 ovarian", "TGI": "> 100 µM"}
{"Compound": "CC(=O)c1ccc2c(ccc(=O)n2C)c1", "Target under test": "OVCAR-5 ovarian", "TGI": "> 100 µM"}
{"Compound": "O=C(O)c1cc2ccccc2c(N=Nc2cc(C(F)(F)F)ccc2Cl)c1O", "Target under test": "OVCAR-5 ovarian", "TGI": "> 100 µM"}
{"Compound": "O=C(CCCNc1nc(-c2ccccc2)cs1)c1cccs1", "Target under test": "OVCAR-5 ovarian", "TGI": "> 100 µM"}
{"Compound": "COc1cc(O)c2c(c1)C(=O)C=C(Cl)C2=O", "Target under test": "OVCAR-5 ovarian", "TGI": "> 100 µM"}
{"Compound": "C=C(C)CC1(O)C(=O)C(OCC)=C1OCC (configuration not stated)", "Target under test": "OVCAR-5 ovarian", "TGI": "> 100 µM"}
{"Compound": "COC(=O)Nc1nc2ccc(C(=O)c3ccc(N(C)C4COC4)cc3)cc2[nH]1", "Target under test": "OVCAR-5 ovarian", "TGI": "> 100 µM"}

----------
GI50: recorded values
- Tested on: DU-145 prostate
- Method notes: NCI tumour cell line growth inhibition, 48 h
Readout name: GI50

{"Compound": "Cc1cc(O)c(C2=NN(c3ccc(S(N)(=O)=O)cc3)C(c3ccc(N(C)C)cc3)C2)c(C)c1Cl (centres undefined)", "Target under test": "DU-145 prostate", "Readout name": "GI50", "Test result": "19.2 µM"}
{"Compound": "Cc1cc(Nc2c3ccccc3nc3ccccc23)ccc1NS(C)(=O)=O", "Target under test": "DU-145 prostate", "Readout name": "GI50", "Test result": "4.87 µM"}
{"Compound": "O=C(Nc1ccccc1O)c1ccc(CNc2ccnc(C(F)(F)F)c2)cc1", "Target under test": "DU-145 prostate", "Readout name": "GI50", "Test result": "3.38 µM"}
{"Compound": "COc1ccc(-c2nc(C(=O)c3ccccc3)n(CC(=O)c3ccccc3)c2-c2ccc(OC)cc2)cc1", "Target under test": "DU-145 prostate", "Readout name": "GI50", "Test result": "> 100 µM"}
